Could you please report measured melting point for the items listed next?

// worked examples, melting point included
1. COc1ccc2nc(OC)c(C=C3N=C(c4cc(OC)c(OC)c(OC)c4)NC3=O)cc2c1 [Compound 13e] | 253 to 255 °C
2. COc1cc(C2=NC(=Cc3cc4ccc(OCc5ccccc5)cc4nc3OC)C(=O)N2)cc(OC)c1OC [Compound 13h] | 259 to 261 °C
3. COc1cc(C2=NC(=Cc3cc4ccc(OC(C)C)cc4nc3OC)C(=O)N2)cc(OC)c1OC [Compound 13g] | 238 to 240 °C

# ---- query compound ----
State the recorded melting point for this entry: COc1cc(C2=NC(=Cc3cc4cccc(C)c4nc3OC)C(=O)O2)cc(OC)c1OC [Compound 12d]
236 to 238 °C

Data provenance is paper PMC7993375.
